- tested_on: T1, Macaca fascicularis PDGFRb.mmh (Macaca fascicularis)
- T1 construct: Soluble monomeric construct; also called mfPDGFRb.mmh
- T1 chain: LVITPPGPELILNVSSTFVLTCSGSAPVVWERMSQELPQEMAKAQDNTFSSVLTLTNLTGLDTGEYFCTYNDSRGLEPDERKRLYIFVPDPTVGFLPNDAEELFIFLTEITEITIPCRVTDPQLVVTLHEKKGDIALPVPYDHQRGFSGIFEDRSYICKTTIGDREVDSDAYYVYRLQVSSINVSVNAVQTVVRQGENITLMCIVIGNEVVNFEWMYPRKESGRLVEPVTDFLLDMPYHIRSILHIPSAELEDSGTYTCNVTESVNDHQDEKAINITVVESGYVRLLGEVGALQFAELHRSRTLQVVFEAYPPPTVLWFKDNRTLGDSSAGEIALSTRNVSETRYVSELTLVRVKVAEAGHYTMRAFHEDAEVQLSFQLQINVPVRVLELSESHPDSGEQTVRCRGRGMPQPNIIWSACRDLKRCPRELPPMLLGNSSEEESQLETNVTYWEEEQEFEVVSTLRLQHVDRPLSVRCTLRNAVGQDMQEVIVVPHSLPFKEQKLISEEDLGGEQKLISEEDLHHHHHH
- measurement_description: SPR, mAb captured, 25 C
Exercise: state measured kon for each of the binders provided.
Give bare numbers, in M⁻¹ s⁻¹.

// solved cases for kon follow
In plain terms, H2M3373N (antibody, V domains shown, mouse Fc (H2M prefix; isotype not spelled out)) VH: EVQLRDSGGGLVQPGGSLRLSCVASGFTFSSYWMSWVRQAPGKGLEWVVNINRDGSEKYYVDSVKGRFIISRDNTKNSLYLQMESLRAEDTAVYYCARDPPYHLYGMDVWGQGTTVTVSS VL: DIQMTQSPSSLSASVGDRVTITCRTSQGIRVDLAWYQQKPGKAPERLIYAASSLQSGVPSRFSGGGSGTEFTLTVSSLQPEDFATYYCLQHHNFPYTFGQGTKLEIK has a documented kon of 130000

Lab note: H4H3374N (antibody, human IgG4, V domains shown, human IgG4 Fc (H4H prefix)) VH: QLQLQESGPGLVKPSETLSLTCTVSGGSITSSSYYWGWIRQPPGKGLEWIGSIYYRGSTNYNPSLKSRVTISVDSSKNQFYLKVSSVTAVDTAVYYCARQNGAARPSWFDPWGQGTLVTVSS VL: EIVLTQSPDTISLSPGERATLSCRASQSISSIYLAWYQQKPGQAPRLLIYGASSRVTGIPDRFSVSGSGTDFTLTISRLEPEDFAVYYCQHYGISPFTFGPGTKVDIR gave kon of 284000

Kindly consider the entry below.
Quick note, kon for H1M3361N (antibody, mouse IgG1, V domains shown, mouse IgG1 Fc (H1M prefix)) VH: EVQLVESGGGLVQPGGSLRLSCAASGFTFSSYWMTWVRQAPGKGLEWVANIRQDGSDKYYVDSVKGRFTISRDNAKNSLFLQMNSLRAEDTAVYYCARTNGGTYGYNHYYYGMDVWGQGTTVTVSS VL: DIQMTQSPSSLSASVGDRVTITCRASQGIRNDLGWYQLKPGKAPKRLIFAASSLQSGVPSRFSGSGSGTEFTLTISSLQPEDFATYYCLQHNSYPWTFGQGTKVEIK landed at 10000
